- experimental.target: T1, Recombinant soluble E protein (0.8E-His) from DENV-1 (DENV-1, UniProt P27909 281-675)
- T1 construct: also called DENV-1 E protein; DV1
Values of Kd strictly less than 4 nM map to 1, and values of at least 4 nM map to -1.

# TODO verify Kd < 4 nM strictly for this binder: DG_3CH1047-SG182/3CL658-SK1 (antibody, human IgG1, kappa, V domains shown, also called 3Cam) VH: QVQLVQSGPDVEKPGASVKVSCKASGYTFTSYYMHWVRQAPGQGLEWMGVINPRGGSRRSAQKFQGRITMTRDTSTSTVYMELSSLRSEDTAVYYCARGGEALFYDSYTTPFDGGSWWFDPWGQGSLVTVSS VL: DIQLTQSPSSLSASVGDRVTFTCQASQEIRKYLNWYQQKPGKAPKLLIYDASELKTGVPSRFSGSGSGTDFTFTISSLQPEDVATYYCQQFEDLPITFGQGTRLQIKR
1

# TODO verify Kd < 4 nM strictly for this binder: DG_3CH953-SG182/3CL499-SK1 (antibody, V domains shown) VH: QVQLVQSGPDVEKPGASVKVSCKASGYTFTSNYIHWVRQAPGQGLEWMGVINPRGGSRRSAQKFQGRITMTRDTSTSTVYMELSSLRSEDTAVYYCARGGRALFYDSYTTPFDGGSWWFDPWGQGSLVTVSS VL: DIQLTQSPSSLSASVGDRVTFTCQASQDIRKYLNWYQQKPGKAPKLLIYDASNLKFGVPSRFSGSGSGTDFTFTISSLQPEDVATYYCQQFDALPITFGQGTRLQIKR
1

# TODO verify Kd < 4 nM strictly for this binder: DG_3CH912-SG182/3CL-SK1 (antibody, human IgG1, kappa, V domains shown) VH: QVQLVQSGPDVEKPGASVKVSCKASGYTFTSNYIHWVRQAPGQGLEWMGVINPRGGSRASAQKFQGRITMTRDTSTSTVYMELSSLRSEDTAVYYCARGGRALFYDSYTTPFDGGSWWFDPWGQGSLVTVSS VL: DIQLTQSPSSLSASVGDRVTFTCQASQDIRKYLNWYQQKPGKAPKLLIYDASNLKTGVPSRFSGSGSGTDFTFTISSLQPEDVATYYCQQFDDLPITFGQGTRLQIKR
1

# TODO verify Kd < 4 nM strictly for this binder: DG_3CH-SG182/3CL499-SK1 (antibody, V domains shown) VH: QVQLVQSGPDVEKPGASVKVSCKASGYTFTSNYIHWVRQAPGQGLEWMGVINPRGGSTASAQKFQGRITMTRDTSTSTVYMELSSLRSDDTAVYYCARGGRALFYDSYTTPRDGGSWWFDPWGQGSLVTVSS VL: DIQLTQSPSSLSASVGDRVTFTCQASQDIRKYLNWYQQKPGKAPKLLIYDASNLKFGVPSRFSGSGSGTDFTFTISSLQPEDVATYYCQQFDALPITFGQGTRLQIKR
-1

# TODO verify Kd < 4 nM strictly for this binder: DG_3CH955-SG182/3CL-SK1 (antibody, V domains shown) VH: QVQLVQSGPDVEKPGASVKVSCKASGYTFTSNYIHWVRQAPGQGLEWMGVINPRGGSRRSAQKFQGRITMTRDTSTSTVYMELSSLRSEDTAVYYCARGGRALFYDSYTTPRDLGSWWFDPWGQGSLVTVSS VL: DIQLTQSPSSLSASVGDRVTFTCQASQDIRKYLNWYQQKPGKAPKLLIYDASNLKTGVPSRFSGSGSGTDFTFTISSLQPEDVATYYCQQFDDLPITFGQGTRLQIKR
1

# TODO verify Kd < 4 nM strictly for this binder: DG_3CH953-SG182/3CL563-SK1 (antibody, human IgG1, kappa, V domains shown) VH: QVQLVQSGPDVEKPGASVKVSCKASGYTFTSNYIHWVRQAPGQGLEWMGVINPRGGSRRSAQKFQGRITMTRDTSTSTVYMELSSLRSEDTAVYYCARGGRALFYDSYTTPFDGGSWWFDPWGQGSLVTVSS VL: DIQLTQSPSSLSASVGDRVTFTCQASQDIRQYLNWYQQKPGKAPKLLIYDASNLKFGVPSRFSGSGSGTDFTFTISSLQPEDVATYYCQQFSALPITFGQGTRLQIKR
1
